- condition label: in water, 303.15 K
measured quantity: solubility (mole fraction)

Request: Form field: reported solubility (mole fraction) of COc1c(O)cc2c(c1O)[C@@H]1O[C@H](CO)[C@@H](O)[C@H](O)[C@H]1OC2=O
Response: 9.93e-05

###

- condition label: in sec-butanol, 303.15 K
measured quantity: solubility (mole fraction)
Just the number.

Request: Form field: reported solubility (mole fraction) of COc1c(O)cc2c(c1O)[C@@H]1O[C@H](CO)[C@@H](O)[C@H](O)[C@H]1OC2=O
Response: 0.00041

###

- condition label: in DMSO, 318.15 K
measured quantity: solubility (mole fraction)

Request: Form field: reported solubility (mole fraction) of COc1c(O)cc2c(c1O)[C@@H]1O[C@H](CO)[C@@H](O)[C@H](O)[C@H]1OC2=O
Response: 0.023

###

- condition label: in ethyl acetate, 313.15 K
measured quantity: solubility (mole fraction)
Just the number.

Request: Form field: reported solubility (mole fraction) of COc1c(O)cc2c(c1O)[C@@H]1O[C@H](CO)[C@@H](O)[C@H](O)[C@H]1OC2=O
Response: 0.000526

###

- condition label: in ethyl acetate, 303.15 K
measured quantity: solubility (mole fraction)
Just the number.

Request: Form field: reported solubility (mole fraction) of COc1c(O)cc2c(c1O)[C@@H]1O[C@H](CO)[C@@H](O)[C@H](O)[C@H]1OC2=O
Response: 0.000311

###

- condition label: in water, 318.15 K
measured quantity: solubility (mole fraction)

Request: Form field: reported solubility (mole fraction) of COc1c(O)cc2c(c1O)[C@@H]1O[C@H](CO)[C@@H](O)[C@H](O)[C@H]1OC2=O
Response: 0.000187

###

- condition label: in isopropanol, 298.15 K
measured quantity: solubility (mole fraction)

Request: Form field: reported solubility (mole fraction) of COc1c(O)cc2c(c1O)[C@@H]1O[C@H](CO)[C@@H](O)[C@H](O)[C@H]1OC2=O
Response: 0.00129

###

- condition label: in water, 313.15 K
measured quantity: solubility (mole fraction)

Request: Form field: reported solubility (mole fraction) of COc1c(O)cc2c(c1O)[C@@H]1O[C@H](CO)[C@@H](O)[C@H](O)[C@H]1OC2=O
Response: 0.000155

###

- condition label: in PEG-400, 308.15 K
measured quantity: solubility (mole fraction)
Just the number.

Request: Form field: reported solubility (mole fraction) of COc1c(O)cc2c(c1O)[C@@H]1O[C@H](CO)[C@@H](O)[C@H](O)[C@H]1OC2=O
Response: 0.032

###

- condition label: in ethyl acetate, 298.15 K
measured quantity: solubility (mole fraction)
Just the number.

Request: Form field: reported solubility (mole fraction) of COc1c(O)cc2c(c1O)[C@@H]1O[C@H](CO)[C@@H](O)[C@H](O)[C@H]1OC2=O
Response: 0.000228

###

- condition label: in propylene glycol, 318.15 K
measured quantity: solubility (mole fraction)
Just the number.

Request: Form field: reported solubility (mole fraction) of COc1c(O)cc2c(c1O)[C@@H]1O[C@H](CO)[C@@H](O)[C@H](O)[C@H]1OC2=O
Response: 0.0119

###

- condition label: in water, 298.15 K
measured quantity: solubility (mole fraction)
Just the number.

Request: Form field: reported solubility (mole fraction) of COc1c(O)cc2c(c1O)[C@@H]1O[C@H](CO)[C@@H](O)[C@H](O)[C@H]1OC2=O
Response: 7.57e-05

###

- condition label: in n-butanol, 303.15 K
measured quantity: solubility (mole fraction)
Just the number.

Request: Form field: reported solubility (mole fraction) of COc1c(O)cc2c(c1O)[C@@H]1O[C@H](CO)[C@@H](O)[C@H](O)[C@H]1OC2=O
Response: 0.000404

###

- condition label: in transcutol, 303.15 K
measured quantity: solubility (mole fraction)
Just the number.

Request: Form field: reported solubility (mole fraction) of COc1c(O)cc2c(c1O)[C@@H]1O[C@H](CO)[C@@H](O)[C@H](O)[C@H]1OC2=O
Response: 0.0166

###

- condition label: in transcutol, 318.15 K
measured quantity: solubility (mole fraction)

Request: Form field: reported solubility (mole fraction) of COc1c(O)cc2c(c1O)[C@@H]1O[C@H](CO)[C@@H](O)[C@H](O)[C@H]1OC2=O
Response: 0.0228

###

- condition label: in ethylene glycol, 318.15 K
measured quantity: solubility (mole fraction)
Just the number.

Request: Form field: reported solubility (mole fraction) of COc1c(O)cc2c(c1O)[C@@H]1O[C@H](CO)[C@@H](O)[C@H](O)[C@H]1OC2=O
Response: 0.0117

###

- condition label: in ethylene glycol, 308.15 K
measured quantity: solubility (mole fraction)
Just the number.

Request: Form field: reported solubility (mole fraction) of COc1c(O)cc2c(c1O)[C@@H]1O[C@H](CO)[C@@H](O)[C@H](O)[C@H]1OC2=O
Response: 0.00944

###

- condition label: in transcutol, 308.15 K
measured quantity: solubility (mole fraction)
Just the number.

Request: Form field: reported solubility (mole fraction) of COc1c(O)cc2c(c1O)[C@@H]1O[C@H](CO)[C@@H](O)[C@H](O)[C@H]1OC2=O
Response: 0.0186

###

- condition label: in ethylene glycol, 303.15 K
measured quantity: solubility (mole fraction)
Just the number.

Request: Form field: reported solubility (mole fraction) of COc1c(O)cc2c(c1O)[C@@H]1O[C@H](CO)[C@@H](O)[C@H](O)[C@H]1OC2=O
Response: 0.00859

###

- condition label: in transcutol, 313.15 K
measured quantity: solubility (mole fraction)
Just the number.

Request: Form field: reported solubility (mole fraction) of COc1c(O)cc2c(c1O)[C@@H]1O[C@H](CO)[C@@H](O)[C@H](O)[C@H]1OC2=O
Response: 0.0207

###

- condition label: in isopropanol, 303.15 K
measured quantity: solubility (mole fraction)

Request: Form field: reported solubility (mole fraction) of COc1c(O)cc2c(c1O)[C@@H]1O[C@H](CO)[C@@H](O)[C@H](O)[C@H]1OC2=O
Response: 0.00139

###

- condition label: in PEG-400, 313.15 K
measured quantity: solubility (mole fraction)
Just the number.

Request: Form field: reported solubility (mole fraction) of COc1c(O)cc2c(c1O)[C@@H]1O[C@H](CO)[C@@H](O)[C@H](O)[C@H]1OC2=O
Response: 0.0367

###

- condition label: in sec-butanol, 298.15 K
measured quantity: solubility (mole fraction)

Request: Form field: reported solubility (mole fraction) of COc1c(O)cc2c(c1O)[C@@H]1O[C@H](CO)[C@@H](O)[C@H](O)[C@H]1OC2=O
Response: 0.000384

###

- condition label: in PEG-400, 318.15 K
measured quantity: solubility (mole fraction)
Just the number.

Request: Form field: reported solubility (mole fraction) of COc1c(O)cc2c(c1O)[C@@H]1O[C@H](CO)[C@@H](O)[C@H](O)[C@H]1OC2=O
Response: 0.0415

###

- condition label: in DMSO, 313.15 K
measured quantity: solubility (mole fraction)
Just the number.

Request: Form field: reported solubility (mole fraction) of COc1c(O)cc2c(c1O)[C@@H]1O[C@H](CO)[C@@H](O)[C@H](O)[C@H]1OC2=O
Response: 0.0214

###

- condition label: in propylene glycol, 313.15 K
measured quantity: solubility (mole fraction)
Just the number.

Request: Form field: reported solubility (mole fraction) of COc1c(O)cc2c(c1O)[C@@H]1O[C@H](CO)[C@@H](O)[C@H](O)[C@H]1OC2=O
Response: 0.0108

###

- condition label: in water, 308.15 K
measured quantity: solubility (mole fraction)
Just the number.

Request: Form field: reported solubility (mole fraction) of COc1c(O)cc2c(c1O)[C@@H]1O[C@H](CO)[C@@H](O)[C@H](O)[C@H]1OC2=O
Response: 0.000125

###

- condition label: in ethanol, 318.15 K
measured quantity: solubility (mole fraction)
Just the number.

Request: Form field: reported solubility (mole fraction) of COc1c(O)cc2c(c1O)[C@@H]1O[C@H](CO)[C@@H](O)[C@H](O)[C@H]1OC2=O
Response: 0.00777

###

- condition label: in ethyl acetate, 308.15 K
measured quantity: solubility (mole fraction)

Request: Form field: reported solubility (mole fraction) of COc1c(O)cc2c(c1O)[C@@H]1O[C@H](CO)[C@@H](O)[C@H](O)[C@H]1OC2=O
Response: 0.000405

###

- condition label: in DMSO, 298.15 K
measured quantity: solubility (mole fraction)
Just the number.

Request: Form field: reported solubility (mole fraction) of COc1c(O)cc2c(c1O)[C@@H]1O[C@H](CO)[C@@H](O)[C@H](O)[C@H]1OC2=O
Response: 0.0171

###

- condition label: in n-butanol, 313.15 K
measured quantity: solubility (mole fraction)
Just the number.

Request: Form field: reported solubility (mole fraction) of COc1c(O)cc2c(c1O)[C@@H]1O[C@H](CO)[C@@H](O)[C@H](O)[C@H]1OC2=O
Response: 0.000458
